assay: In vivo pharmacokinetic and bioavailability experiments of rats; design: species or system SD rats; conditions: Sprague-Dawley, rat, plasma; SD rats, iv, 5 mg/kg single dose
Lab note: anything with AUC(0-t) at or over 20000 ng·h/mL counts as T; the rest go in F.

Answered cases to consult:
- COMPOUND: "COc1cc2ncnc(Oc3ccc(NC(=O)c4cn(-c5ccc(F)cc5)c5cc(N6CCNCC6)c(F)cc5c4=O)cc3F)c2cc1OC [TL4830042]"
  CLASS: "F"
- COMPOUND: "CCc1ccc2c(c1)c(=O)c(C(=O)Nc1ccc(Oc3ncnc4cc(OCCN(C)C)c(OC)cc34)c(F)c1)c(C)n2C [GDL5000128]"
  CLASS: "F"
- COMPOUND: "CCc1ccc2c(c1)c(=O)c(C(=O)Nc1ccc(Oc3ncnc4cc(OCCCN5CCN(C)CC5)c(OC)cc34)c(F)c1)c(C)n2C [GDL5000138]"
  CLASS: "F"

Next compound, please.
Reported AUC(0-t) reaches at least 20000 ng·h/mL for COc1cc2ncnc(Oc3ccc(NC(=O)c4cn5c6c(c(N7CCN(C)CC7)c(F)cc6c4=O)OCN5C)cc3F)c2cc1OC [TL4830039] ?
F

Value source: patent US10683278B2
